Measured IC50 by item
tested on: Human eIF4E (aa 28-217) / biotin labeled 4G2 peptide (Homo sapiens (Human))
Sequence (P06730 28-217): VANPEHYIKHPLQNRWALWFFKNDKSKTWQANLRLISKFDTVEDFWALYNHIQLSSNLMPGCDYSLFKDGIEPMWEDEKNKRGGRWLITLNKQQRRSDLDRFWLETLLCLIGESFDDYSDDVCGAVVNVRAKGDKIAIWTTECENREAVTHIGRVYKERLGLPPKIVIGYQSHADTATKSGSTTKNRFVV
procedure summary: Human eIF4E/4G2 binding assay (TR-FRET)
condition description: Human eIF4E/4G2 TR-FRET binding assay; head says IC50, legend says EC50

Below, each entry is followed by its recorded IC50 result.
compound: CC(C)CCc1sc(NCC(Cc2ccccc2)C(=O)O)nc1-c1ccc(Cl)c(Cl)c1 (stereo not drawn)
IC50: ≤ 1 µM

compound: CC(C)Cc1sc(N(CCCCCCN)CCC(=O)O)nc1-c1ccc(Cl)c(Cl)c1
IC50: > 10 µM

compound: CC(C)Cc1sc(Nc2cccc(C(=O)NCCN)c2)nc1-c1ccc(Cl)c(Cl)c1
IC50: > 10 µM

compound: CC(C)Cc1sc(N(CCO)CCC(=O)O)nc1-c1ccc(Cl)c(Cl)c1
IC50: 1 to 10 µM

compound: O=C(O)C(CNc1nc(-c2ccc(Cl)c(Cl)c2)c(C2CC2)s1)Cc1cccc(F)c1 (stereo not drawn)
IC50: 1 to 10 µM

I looked up CC(C)Cc1sc(Nc2cccnc2C(=O)O)nc1-c1ccc(Cl)c(Cl)c1 and its IC50 for Human eIF4E (aa 28-217) / biotin labeled 4G2 peptide (Homo sapiens (Human)) was 1 to 10 µM

I looked up CC(C)Cc1sc(N(CCC(=O)O)Cc2c[nH]c3ccccc23)nc1-c1ccc(Cl)c(Cl)c1 and its IC50 for Human eIF4E (aa 28-217) / biotin labeled 4G2 peptide (Homo sapiens (Human)) was 1 to 10 µM

I looked up COc1ncc(CC(CNc2nc(-c3ccc(Cl)c(Cl)c3)c(CC(C)C)s2)C(=O)O)cn1 (stereo not drawn) and its IC50 for Human eIF4E (aa 28-217) / biotin labeled 4G2 peptide (Homo sapiens (Human)) was > 10 µM

I looked up CC(C)Cc1sc(NCC(Cc2ccncc2)C(=O)O)nc1-c1ccc(Cl)c(Cl)c1 (stereo not drawn) and its IC50 for Human eIF4E (aa 28-217) / biotin labeled 4G2 peptide (Homo sapiens (Human)) was 1 to 10 µM

====

tested on: Human eIF4E (aa 28-217) / biotin labeled 4G2 peptide (Homo sapiens (Human))
procedure summary: Human eIF4E/4G2 binding assay (TR-FRET)
condition description: Human eIF4E/4G2 TR-FRET binding assay; head says IC50, legend says EC50
metric name: IC50

Below, each entry is followed by its recorded IC50 result.
compound: CC(C)Cc1sc(NCC(Cc2ccc3[nH]ccc3c2)C(=O)O)nc1-c1ccc(Cl)c(Cl)c1 (stereo not shown) [I-27]
metric name: IC50
result: ≤ 1 µM

compound: Cn1nnnc1-c1sc(Nc2ncccc2C(=O)O)nc1-c1ccc(Cl)c(Cl)c1 [I-257]
metric name: IC50
result: ≤ 1 µM

compound: CC(C)Cc1sc(NCC(Cc2ccc(C(N)=O)cc2)C(=O)O)nc1-c1ccc(Cl)c(Cl)c1 (stereo not shown) [I-166]
metric name: IC50
result: 1 to 10 µM

compound: O=C(O)CCN(Cc1ccccc1)c1nc(-c2ccc(Cl)c(Cl)c2)c(CN2CCC2)s1 [I-130]
metric name: IC50
result: > 10 µM

compound: COc1ccc(-c2nc(Nc3ncc(-c4cccs4)cc3C(=O)O)sc2CC(C)C)cc1 [I-333]
metric name: IC50
result: ≤ 1 µM

I looked up O=C(O)C(CNc1nc(-c2ccc(Cl)c(Cl)c2)c(C2CCC2)s1)Cc1ccccc1 (stereo not shown) [I-178] and its IC50 for Human eIF4E (aa 28-217) / biotin labeled 4G2 peptide (Homo sapiens (Human)) was 1 to 10 µM

I looked up CC(C)Cc1sc(Nc2cc(-c3ccccc3)sc2C(=O)O)nc1-c1ccc(Cl)c(Cl)c1 [I-270] and its IC50 for Human eIF4E (aa 28-217) / biotin labeled 4G2 peptide (Homo sapiens (Human)) was ≤ 1 µM

I looked up CC(C)c1sc(NCC(Cc2cccc3cc[nH]c23)C(=O)O)nc1-c1ccc(Cl)c(Cl)c1 (stereo not shown) [I-7] and its IC50 for Human eIF4E (aa 28-217) / biotin labeled 4G2 peptide (Homo sapiens (Human)) was ≤ 1 µM

I looked up CC(C)c1sc(NCC(Cc2ccccc2)C(=O)O)nc1-c1ccc(Cl)cc1 (stereo not shown) [I-38] and its IC50 for Human eIF4E (aa 28-217) / biotin labeled 4G2 peptide (Homo sapiens (Human)) was 1 to 10 µM

I looked up CC(C)Cc1sc(NCC(Cc2c[nH]c3ccccc23)C(=O)O)nc1-c1ccc(Cl)c(Cl)c1 (stereo not shown) [I-26] and its IC50 for Human eIF4E (aa 28-217) / biotin labeled 4G2 peptide (Homo sapiens (Human)) was 1 to 10 µM

I looked up CC(C)Cc1sc(N(CCC(=O)O)Cc2ccccc2)nc1-c1ccc(Oc2ccccc2)c(Cl)c1 [I-103] and its IC50 for Human eIF4E (aa 28-217) / biotin labeled 4G2 peptide (Homo sapiens (Human)) was ≤ 1 µM

I looked up CSc1sc(NCC(Cc2ccccc2)C(=O)O)nc1-c1ccc(Cl)c(Cl)c1 (stereo not shown) [I-206] and its IC50 for Human eIF4E (aa 28-217) / biotin labeled 4G2 peptide (Homo sapiens (Human)) was 1 to 10 µM

I looked up CC(C)Cc1sc(NCC(Cc2cccc(O)c2)C(=O)O)nc1-c1ccc(Cl)c(Cl)c1 (stereo not shown) [I-21] and its IC50 for Human eIF4E (aa 28-217) / biotin labeled 4G2 peptide (Homo sapiens (Human)) was 1 to 10 µM

I looked up COc1ccccc1CC(CNc1nc(-c2ccc(Cl)cc2)c(C(C)C)s1)C(=O)O (stereo not shown) [I-40] and its IC50 for Human eIF4E (aa 28-217) / biotin labeled 4G2 peptide (Homo sapiens (Human)) was 1 to 10 µM

I looked up CC(C)Cc1sc(N(CCCc2ccccc2)CCC(=O)O)nc1-c1ccc(Cl)c(Cl)c1 [I-96] and its IC50 for Human eIF4E (aa 28-217) / biotin labeled 4G2 peptide (Homo sapiens (Human)) was ≤ 1 µM

I looked up CC(C)Cc1sc(NCC(Cc2cccc3[nH]ccc23)C(=O)O)nc1-c1ccc(Cl)c(Cl)c1 (stereo not shown) [I-25] and its IC50 for Human eIF4E (aa 28-217) / biotin labeled 4G2 peptide (Homo sapiens (Human)) was ≤ 1 µM

I looked up O=C(O)c1cccc(-c2nc(Cc3ccc(Cl)c(Cl)c3)cs2)c1 [I-223] and its IC50 for Human eIF4E (aa 28-217) / biotin labeled 4G2 peptide (Homo sapiens (Human)) was 1 to 10 µM

I looked up CC(C)Cc1sc(N(CCC(=O)NCCNC(=N)N)Cc2ccccc2)nc1-c1ccc(Cl)c(Cl)c1 [I-197] and its IC50 for Human eIF4E (aa 28-217) / biotin labeled 4G2 peptide (Homo sapiens (Human)) was 1 to 10 µM

I looked up CC(C)Cc1sc(Nc2cccc(C(=O)O)n2)nc1-c1ccc(Cl)c(Cl)c1 [I-219] and its IC50 for Human eIF4E (aa 28-217) / biotin labeled 4G2 peptide (Homo sapiens (Human)) was 1 to 10 µM
